- Test system: Plasmodium falciparum
- testDetails: Antimalarial activity against chloroquine-sensitive Plasmodium falciparum D6 assessed as inhibition of [3H]hypoxanthine incorporation after 96 hrs by microtiter plate scintillation counting
- Assay type: functional, organism-based
propertyMeasured: IC50
Hey, just the number and the unit after it is fine.

Guide cases for IC50, answers given:
>>> assayresult("CC[C@H]1OC(=O)[C@H](C)[C@@H](O[C@H]2C[C@@](C)(OC)[C@@H](O)[C@H](C)O2)[C@H](C)[C@@H](O[C@@H]2O[C@H](C)C[C@H](N(C)C)[C@H]2O)[C@](C)(O)C[C@@H](C)CN(CCCNC(=O)Nc2ccc3c(c2)CCC3)[C@H](C)[C@@H](O)[C@]1(C)O")
"266 nM"
>>> assayresult("CC[C@H]1OC(=O)[C@H](C)[C@@H](O[C@H]2C[C@@](C)(OC)[C@@H](O)[C@H](C)O2)[C@H](C)[C@@H](O[C@@H]2O[C@H](C)C[C@H](N(C)C)[C@H]2O)[C@](C)(O)C[C@@H](C)CN(CCCNC(=O)NCc2ccc(OC)cc2)[C@H](C)[C@@H](O)[C@]1(C)O")
"1620 nM"

Lookup: Give recorded IC50. CC[C@H]1OC(=O)[C@H](C)[C@@H](O[C@H]2C[C@@](C)(OC)[C@@H](O)[C@H](C)O2)[C@H](C)[C@@H](O[C@@H]2O[C@H](C)C[C@H](N(C)C)[C@H]2O)[C@](C)(O)C[C@@H](C)CN(CCCNC(=O)Nc2ccc(Cl)cc2)[C@H](C)[C@@H](O)[C@]1(C)O
Found: 188 nM
